- system_tested: T1, TNFR2-His (Sino Biological, 10417-H08H, NP_001057.1 Met1-Asp257, with multi-histidine tag expressed on … (human, UniProt P20333 23-257))
- T1 construct: range 1-257; Bought protein; also called recombinant human TNFR2 protein; TNFR2-His antigen; not shown: C-terminal multi-histidine tag
- T1 sequence (looked up): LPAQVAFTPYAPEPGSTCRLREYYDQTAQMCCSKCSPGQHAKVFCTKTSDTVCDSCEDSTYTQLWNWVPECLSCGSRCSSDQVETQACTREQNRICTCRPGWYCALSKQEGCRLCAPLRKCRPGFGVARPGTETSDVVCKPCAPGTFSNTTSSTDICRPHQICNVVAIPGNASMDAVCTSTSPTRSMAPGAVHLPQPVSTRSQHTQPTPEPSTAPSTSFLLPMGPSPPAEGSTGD
- assay_text: ELISA, plate coated with TNFR2-His
- Method: To determine whether the human-mouse chimeric TNFR2 monoclonal antibody of the present invention can bind to recombinant human TNFR2 protein, in vitro ELISA test was conducted. […] Then, secondary antibody Ap-anit-human IgG Fc (JacksonImmuno Research, 109-055-098) was added for incubation After TMB development, ELISA reading was performed.
measured_endpoint: EC50 (µg/mL)

INSERT INTO measurements (binder, measured_endpoint, units_label, result_value) VALUES
  ('human-mouse chimeric TNFR2 monoclonal antibody 7F2-hFc (antibody, V domains shown, Mouse V regions of clone 7F2 with human constant regions) VH: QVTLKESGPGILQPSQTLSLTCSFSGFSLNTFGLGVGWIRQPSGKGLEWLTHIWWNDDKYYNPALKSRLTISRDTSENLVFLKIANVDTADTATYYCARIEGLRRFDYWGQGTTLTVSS VL: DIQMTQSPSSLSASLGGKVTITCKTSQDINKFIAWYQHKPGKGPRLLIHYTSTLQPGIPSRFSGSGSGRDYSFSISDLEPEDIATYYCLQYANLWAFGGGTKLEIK', 'EC50', 'µg/mL', 0.0476),
  ('human-mouse chimeric TNFR2 monoclonal antibody 27F6-hFc (antibody, V domains shown, Mouse V regions of clone 27F6 with human constant regions) VH: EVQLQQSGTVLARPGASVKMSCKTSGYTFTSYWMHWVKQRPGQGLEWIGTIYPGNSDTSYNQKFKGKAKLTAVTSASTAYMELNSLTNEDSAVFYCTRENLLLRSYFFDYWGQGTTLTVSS VL: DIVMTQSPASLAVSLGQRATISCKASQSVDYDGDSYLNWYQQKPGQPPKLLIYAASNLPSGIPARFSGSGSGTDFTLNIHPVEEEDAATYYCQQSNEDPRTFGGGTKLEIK', 'EC50', 'µg/mL', 0.0415),
  ('human-mouse chimeric TNFR2 monoclonal antibody 33C12-hFc (antibody, V domains shown, Mouse V regions of clone 33C12 with human constant regions; also called human-mouse chimeric 33C12 antibody) VH: DVKLVESGGGLVKPGGSLKLSCAASGFTFSDYTMSWVRQTPEKRLEWVATISTGGSYTYYPDSVKGRFTISRDNAKNTLYLQMSSLKSEDTAMYYCTRDGGYDGDYFDYWGQGTTLTVSS VL: ENVLTQSPAIMSASPGEKVTMTCRASSSVSSSYLHWYQQKSGASPKLWIYRTSNLASGVPARFSGSGSGTSYSLTISSVEAEDAATYYCQQYSGYPLTFGAGTRLELK', 'EC50', 'µg/mL', 0.0475),
  ('human-mouse chimeric TNFR2 monoclonal antibody 12E12-hFc (antibody, V domains shown, Mouse V regions of clone 12E12 with human constant regions; also called human-mouse chimeric 12E12 antibody) VH: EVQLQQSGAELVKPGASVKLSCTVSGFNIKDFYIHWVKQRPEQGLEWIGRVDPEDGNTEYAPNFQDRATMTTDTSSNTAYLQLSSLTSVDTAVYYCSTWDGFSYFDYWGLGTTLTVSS VL: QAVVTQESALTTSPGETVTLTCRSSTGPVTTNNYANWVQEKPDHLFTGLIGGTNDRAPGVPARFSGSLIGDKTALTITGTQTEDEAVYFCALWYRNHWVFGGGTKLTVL', 'EC50', 'µg/mL', 0.0396);

The measurements presented in this section are drawn from patent US20240392024A1.
